system: ACHN renal; test: NCI tumour cell line growth inhibition, 48 h
readout-kind: TGI (µM)
Kindly answer with a numeric value in µM, unit omitted.

Find the measured TGI: item `Cn1cc(-c2ccc3c(c2)CCN3C(=O)Cc2cccc(C(F)(F)F)c2)c2c(N)ncnc21` , target or system ACHN renal. 13.2

Further, for O=C1CCC2(c3ccccc3)Nc3cc(Cl)ccc3N12 (stereo not given) ? 96.1

Further, for `CCCCC[C@H]1C/C=C2/C(=O)C(Cl)=C[C@@H]2C/C=C\CCCC(=O)O[C@@H](CCCCC)C/C=C2/C(=O)C(Cl)=C[C@@H]2C/C=C\CCCC(=O)O1` ? 2.15

Further, for `Cn1cc(-c2ccc(CNc3cc(-c4cnc5cc(OCCCN6CCCC6)ccn45)ncn3)cc2)cn1` ? 3.22

Further, for C/C1=C\CC[C@@](C)(O)[C@@H]2CC3[C@@H](OC(=O)C34CC4)[C@@H](O2)[C@H](C)CCC1 (stereo not given in full) ? 35.1

Further, for `COc1ccc2c(c1)C(=O)c1c-2n(CCCN2CCOCC2)c(=O)c2ccccc12` ? 4.07

Further, for CCCCCCCCCCCC1N=C(N)NC(CCCO)=C1C(=O)OC (stereo not given) ? 17.3

Further, for CC(CCc1ccc2c(c1)c(=N)c1ccc(N)cc1n2O)CC(C)(C)C (stereo not given) ? 3.14

Further, for `CN(C)c1ccc(/C=C/c2cc[n+](C)c3ccccc23)cc1` ? 36.5

Further, for C=C(C)CCC(C)N1CCC(N2CCC(C(=O)NCCc3ccccc3)CC2)CC1 (stereo not given) ? 53.8

* * *

test system: SN12C renal; test: NCI tumour cell line growth inhibition, 48 h
readout-kind: TGI (µM)
Kindly answer with a numeric value in µM, unit omitted.

Find the measured TGI: item C/C1=C\CC[C@@](C)(O)[C@@H]2CC3[C@@H](OC(=O)C34CC4)[C@@H](O2)[C@H](C)CCC1 (stereo not given in full) , target or system SN12C renal. 43.5

Further, for CC(=O)OC1C2(CC3N4C(=O)C5(CO)SSC4(CC31O)C(=O)N5C)OC(C)C(C)(C)C2=O (stereo not given) ? 0.05

Further, for `CS(=O)(=O)Nc1cc(-c2ccc3ncnc(Nc4ccc5c(cnn5Cc5ccc(F)cc5)c4)c3c2)cnc1Cl` ? 19.3

* * *

system: MDA-MB-435; experiment: NCI tumour cell line growth inhibition, 48 h
Returns one of MET or NOT MET; MET when TGI is >= 30 µM.

In plain terms: is recorded TGI at least 30 µM for CCN1C(=O)N(CC)C2C1NN=c1s/c(=C3\C(=O)N(C)c4ccccc43)c(=O)n12 (stereo not given) ? NOT MET

Further, for Cc1ccc(C(=O)C#Cc2cn(C3CC(O)C(CO)O3)c(=O)[nH]c2=O)cc1 (stereo not given) ? MET

Further, for `CCCCCCCC(=O)N/N=C/c1ccc(Sc2nccn2C)c([N+](=O)[O-])c1` ? NOT MET

Further, for O=C(CC(C(=O)c1cccs1)c1ccsc1)c1ccsc1 (stereo not given) ? MET

Further, for `Cc1cn2c(/C=N/N/C(N)=N\N)c(-c3ccc(Cl)c([N+](=O)[O-])c3)nc2s1` ? NOT MET

Further, for `Clc1ccc2nc(Oc3ccccc3)cnc2c1` ? MET

Further, for `Cn1c(COC(=O)NC2CCCCC2)c(COC(=O)NC2CCCCC2)c2ccc3cc(Cl)c(Cl)cc3c21` ? MET

Further, for `CN(C)c1ccc(N=Nc2c([O-])ccc3ccccc23)cc1.[C-]#[O+].[C-]#[O+].[Ir]` ? MET

Further, for `COc1cc2cc(Oc3ccc(NC(=O)c4ccc(Cl)c(C(F)(F)F)c4)cc3)c(C)nc2cc1OC` ? MET

Further, for `O=C1CCC[C@H]2O[C@@H](COCc3ccccc3)C[C@@H]12` ? MET

Further, for C=C(C)[C@@H]1CC[C@@]2(C)[C@H]1[C@H]1CCC3[C@@]4(C)CC[C@H](O)C(C)(C)[C@@H]4CC[C@@]3(C)[C@]1(C)C[C@@H]2O (stereo not given in full) ? MET

Further, for `CN(C)Cc1cc(N=Nc2ccccc2Cl)cc(CN(C)C)c1O` ? MET

Further, for `O=[N+]([O-])c1ccc(N=NN2CCCC2)cc1` ? MET

Further, for COc1cc(/C=C/C2=NN(c3cccc(S(=O)(=O)O)c3)C3(C2)C(Cl)C(=O)N3c2nc3ccccc3s2)ccc1O (stereo not given) ? MET

Further, for `CCOC(=O)COc1ccc(/C=C/C(=O)c2ccc(OC)cc2)cc1` ? MET

Further, for `COc1cnc2c(c1)C(=O)c1c-2n(CCCN2CCCC2)c(=O)c2cc(Cl)ccc12` ? NOT MET

Further, for CCOC(=O)C1(Cc2c[nH]c3ccccc23)C(O)CCCN1C(C)=O (stereo not given) ? MET

Further, for `CCc1c[nH]c2ncnc(N3CC[C@@](N)(CNC(=O)c4ccc(F)cc4F)C3)c12` ? MET

Further, for `Cn1cc(-c2ccc3c(c2)CCN3C(=O)Cc2cccc(C(F)(F)F)c2)c2c(N)ncnc21` ? NOT MET

Further, for `COc1cc(/C=C(/c2ccccc2)[N+](=O)[O-])c(OC)c2c1OCO2` ? NOT MET

* * *

tested on: RXF-631 renal; experiment: NCI tumour cell line growth inhibition, 48 h
So I've got a bunch of compounds here, and I need their TGI values.

Find the measured TGI: item O=C1C(=O)N(C2C3CC4CC(C3)CC2C4)C(=O)C(=O)C1c1nc2ccccc2o1 (configuration not stated) , target or system RXF-631 renal. > 100 µM

Further, for O=C(Nc1ccc([N+](=O)[O-])cc1)C(=O)C(C(=O)c1ccccc1F)C1OC(=O)c2ccccc21 (configuration not stated) ? 84 µM

Further, for `CCOC(=O)/C(C#N)=C1\N[C@H](C(=O)OCC)CO1` ? > 100 µM

Further, for `CCSc1nc(COC(=O)NC)c(COC(=O)NC)n1C` ? > 100 µM

Further, for CCC1=CC2CC(C(=O)OC)C1(N(C)C)C2=O (configuration not stated) ? > 100 µM

Further, for `CC(=O)Oc1ccccc1C(=O)C1c2cccc(O)c2C(=O)c2c(O)cccc21` ? 11.1 µM

Further, for O=C(Cc1ccccc1)N/N=C(\C1=Nc2ccc([N+](=O)[O-])cc2NC1O)C(O)c1ccc([N+](=O)[O-])cc1 (configuration not stated) ? > 100 µM

Further, for `O=c1[nH]cc(OCC(F)(F)F)c(=O)[nH]1` ? > 100 µM

Further, for `COc1ccc2c(C(=O)O)cc3cc(OC)c(OC)cc3c2c1` ? > 100 µM

Further, for `COc1ccc2cc3n(c2c1)CCc1cc(OC)c(OC)cc1-3` ? > 100 µM

Further, for COc1ccc(COCC(Cn2ccnc2)OCc2ccc(C(=O)O)cc2)cc1 (configuration not stated) ? > 100 µM

Further, for `C/C=C(/CCCCNCCCC)[Si](C)(C)C` ? 31.3 µM

* * *

So I've got a bunch of molecules here, and I need their TGI values.
test system: A549 NSCLC; experiment: NCI tumour cell line growth inhibition, 48 h

For `CC(C)OC(=O)c1ccc2[nH]c(O)c(C(=Nc3ccc(N(C)C(=O)CN4CCN(C)CC4)cc3)c3ccccc3)c2c1` , what is its reported TGI? 2.18 µM

Further, for `COc1ccc2cc3n(c2c1)CCc1cc(OC)c(OC)cc1-3` ? > 100 µM

Further, for `O=c1cccccc1NCCCCCCCCCNc1cccccc1=O` ? > 100 µM

Further, for `CN(/N=C/c1cccs1)c1ccc([N+](=O)[O-])cc1[N+](=O)[O-]` ? > 100 µM

Further, for `N=c1oc2ccc(Cl)cc2cc1C(=O)Nc1ccccc1` ? > 100 µM

Further, for `NCc1ccc(-n2c(-c3nonc3N)nc3cnccc32)cc1` ? > 25 µM

Further, for CC(Oc1ccc(OCC2CCCCC2)cc1)C(=O)N(CCO)CCO (stereo not given) ? > 100 µM

Further, for `CN(C)c1ccc(N=Nc2c([O-])ccc3ccccc23)cc1.[C-]#[O+].[C-]#[O+].[Ir]` ? > 69.3 µM

Further, for `c1ccc2c(c1)CCN2CCc1c[nH]c2ccccc12` ? > 10 µM

Further, for CC(=O)C1=C([O-])C(C)OC1=O.CC(=O)C1=C([O-])C(C)OC1=O.[NH-]C1CCCC[C@H]1[NH-].[Pt+4] (stereo not given) ? > 100 µM

* * *

tested on: HOP-92 NSCLC; experiment: NCI tumour cell line growth inhibition, 48 h
readout-kind: TGI

Find the measured TGI: item CC1=CC(=O)C(C(C)=Nc2ccccc2Cl)C(=O)O1 (stereo unspecified) , target or system HOP-92 NSCLC. > 100 µM

Further, for `Cn1cc(-c2ccc3c(c2)CCN3C(=O)Cc2cccc(C(F)(F)F)c2)c2c(N)ncnc21` ? 9.2 µM

Further, for O=[N+]([O-])c1nccn1CC1OC(n2ccnc2[N+](=O)[O-])C(O)C(O)C1O (stereo unspecified) ? > 100 µM

Further, for `N#Cc1ccc(OCc2ccc3nc(-c4ccccc4)c(Cl)nc3c2)cc1` ? > 100 µM

Further, for `CN(C)Cc1cc(N=Nc2ccccc2Cl)cc(CN(C)C)c1O` ? > 100 µM

Further, for O=C(O)CCC1CCc2cccc3occ1c23 (stereo unspecified) ? > 100 µM

Further, for CCc1cc2c(cc1CCCC(=O)O)CC1(Cc3ccc(C(=O)O)cc3C1)C2 (stereo unspecified) ? > 100 µM

Further, for CC(=O)Nc1ccc(N2C(=O)/C(=C\c3cccc(Oc4ccccc4)c3)SC2c2ccccc2)cc1 (stereo unspecified) ? 40.2 µM

Further, for NC1CNC(=O)c2cscc21 (stereo unspecified) ? > 100 µM

Further, for `O=C1CCC[C@H]2O[C@@H](COCc3ccccc3)C[C@@H]12` ? > 100 µM

Further, for `COc1ccc(CSc2nc3ccccc3nc2-c2cccs2)cc1` ? > 100 µM
